- study_target: Neuronal acetylcholine receptor; alpha4/beta2 (Rattus norvegicus, UniProt P09483+P12390)
- Sequence (P09483 whole entry): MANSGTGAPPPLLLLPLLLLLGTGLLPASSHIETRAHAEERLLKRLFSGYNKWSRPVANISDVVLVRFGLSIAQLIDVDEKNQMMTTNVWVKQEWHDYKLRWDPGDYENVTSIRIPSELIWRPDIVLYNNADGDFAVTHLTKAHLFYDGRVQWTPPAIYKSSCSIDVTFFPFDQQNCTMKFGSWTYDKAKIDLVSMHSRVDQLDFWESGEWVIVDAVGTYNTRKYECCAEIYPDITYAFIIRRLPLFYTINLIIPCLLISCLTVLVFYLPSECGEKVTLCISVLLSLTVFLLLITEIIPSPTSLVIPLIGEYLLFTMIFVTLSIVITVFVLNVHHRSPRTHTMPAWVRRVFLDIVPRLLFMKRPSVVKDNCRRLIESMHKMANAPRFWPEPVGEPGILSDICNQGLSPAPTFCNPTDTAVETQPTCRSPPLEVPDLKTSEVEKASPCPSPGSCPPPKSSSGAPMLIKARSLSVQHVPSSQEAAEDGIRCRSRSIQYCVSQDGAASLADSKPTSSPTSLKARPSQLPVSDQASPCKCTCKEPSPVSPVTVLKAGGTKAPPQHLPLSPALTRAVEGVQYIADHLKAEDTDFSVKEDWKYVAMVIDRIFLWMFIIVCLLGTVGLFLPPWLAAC
- Sequence (P12390 whole entry): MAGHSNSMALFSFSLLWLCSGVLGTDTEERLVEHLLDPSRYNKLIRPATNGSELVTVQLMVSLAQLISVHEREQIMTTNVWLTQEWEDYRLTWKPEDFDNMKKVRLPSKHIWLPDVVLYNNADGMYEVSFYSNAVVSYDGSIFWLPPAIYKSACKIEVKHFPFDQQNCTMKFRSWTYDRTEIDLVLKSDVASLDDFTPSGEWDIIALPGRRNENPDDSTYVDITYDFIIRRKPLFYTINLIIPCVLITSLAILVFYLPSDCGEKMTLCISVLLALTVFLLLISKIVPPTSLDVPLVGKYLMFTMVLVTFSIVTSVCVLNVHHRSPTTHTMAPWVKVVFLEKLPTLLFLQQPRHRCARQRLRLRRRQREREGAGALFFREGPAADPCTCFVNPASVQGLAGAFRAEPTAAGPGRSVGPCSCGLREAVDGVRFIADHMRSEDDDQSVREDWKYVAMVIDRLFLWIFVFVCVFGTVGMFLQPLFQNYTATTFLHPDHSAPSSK
- experiment_description: Binding affinity for Nicotinic acetylcholine receptor alpha4-beta2 by displacement of [3H](-)-cytisine from whole rat brain membranes
pKi: −log10 of the molar value.
Catalogue of pKi readings, one per entry.
property: pKi

                                    molecule  property  bound_operator  measured_number
 0     Cc1cc([C@@H]2CC[C@H](c3ccccc3)N2C)on1       pKi               <             5.00
 1  Cc1cc([C@@H]2C(COC(=S)Oc3ccccc3)CCN2C)on1 (single isomer, unassigned)       pKi               =             6.08
 2        CCCC[C@@H]1CC[C@@H](c2cc(C)no2)N1C       pKi               =             5.99
 3                   Cc1cc([C@@H]2CCCN2C)on1       pKi               =             8.52
 4  Cc1cc([C@@H]2C(C)CCN2C)on1 (single isomer, unassigned)       pKi               <             5.00
 5          Cc1cc([C@@H]2[C@@H](CO)CCN2C)on1       pKi               <             5.00
 6           Cc1cc([C@@H]2CC[C@@H](C)N2C)on1       pKi               =             7.15
 7  COC(=O)CC1CC[C@@H](c2cc(C)no2)N1C (stereo partly specified)       pKi               =             5.46
 8            Cc1cc([C@@H]2CC[C@H](C)N2C)on1       pKi               =             5.30
 9    Cc1cc([C@@H]2CC[C@@H](c3ccccc3)N2C)on1       pKi               =             5.10
10         CCCC[C@H]1CC[C@@H](c2cc(C)no2)N1C       pKi               =             5.44

----------
Overview of recorded half-life for various molecules
- experiment_description: In vitro half life was determined
- Assay type: ADME
property: half-life (min)

>>> df
                      query_smiles  readout_unit  measured_number
0          Cc1cc([C@@H]2CCCN2C)on1           min             47.3
1   Cc1cc([C@@H]2CC[C@H](C)N2C)on1           min             48.3
2  Cc1cc([C@@H]2CC[C@@H](C)N2C)on1           min               26
